Reference source: paper PMC9774391

# target_or_test_system: MAO-B (Homo sapiens, UniProt P27338)
# Sequence (P27338 1-520): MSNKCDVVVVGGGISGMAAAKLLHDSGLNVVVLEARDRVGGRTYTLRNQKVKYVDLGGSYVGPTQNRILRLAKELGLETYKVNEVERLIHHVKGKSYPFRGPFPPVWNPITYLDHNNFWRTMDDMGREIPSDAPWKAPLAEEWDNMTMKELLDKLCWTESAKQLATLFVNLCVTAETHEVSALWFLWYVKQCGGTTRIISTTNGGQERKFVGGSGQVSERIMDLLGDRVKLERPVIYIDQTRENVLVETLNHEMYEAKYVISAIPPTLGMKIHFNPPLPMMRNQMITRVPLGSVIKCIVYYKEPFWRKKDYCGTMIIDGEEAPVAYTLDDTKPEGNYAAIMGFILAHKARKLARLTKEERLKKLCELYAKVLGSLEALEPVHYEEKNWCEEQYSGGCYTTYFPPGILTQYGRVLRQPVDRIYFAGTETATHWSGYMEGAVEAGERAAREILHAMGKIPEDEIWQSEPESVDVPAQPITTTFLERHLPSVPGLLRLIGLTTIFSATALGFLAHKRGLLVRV
measure_name: Ki

Exercise: For the compound COc1ccc2c(c1)C/C(=C\c1ccc(NC(=O)CN(C)CCCN(C)C)cc1)C2=O , give its measured Ki value.
Solution: 29.7 nM

* * *

# target_or_test_system: MAO-A (Homo sapiens)
# Sequence (P21397 whole entry): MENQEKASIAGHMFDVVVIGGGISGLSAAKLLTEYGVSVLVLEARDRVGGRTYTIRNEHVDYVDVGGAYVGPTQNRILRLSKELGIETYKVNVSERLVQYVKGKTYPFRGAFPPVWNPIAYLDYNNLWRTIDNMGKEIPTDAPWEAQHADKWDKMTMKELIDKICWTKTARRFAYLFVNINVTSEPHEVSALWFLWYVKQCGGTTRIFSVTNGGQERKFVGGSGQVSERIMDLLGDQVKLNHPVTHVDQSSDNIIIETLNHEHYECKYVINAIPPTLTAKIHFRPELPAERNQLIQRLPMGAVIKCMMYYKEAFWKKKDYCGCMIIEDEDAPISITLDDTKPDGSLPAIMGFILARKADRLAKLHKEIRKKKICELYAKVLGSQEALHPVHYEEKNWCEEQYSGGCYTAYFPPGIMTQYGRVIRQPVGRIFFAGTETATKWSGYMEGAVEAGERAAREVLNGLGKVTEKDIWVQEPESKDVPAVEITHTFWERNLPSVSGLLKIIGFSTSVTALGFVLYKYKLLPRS
# experiment_summary: In vitro MAO-A inhibition assay (fluorometric)
# Format: biochemical
# condition_details: 10^–3 M
Returns Satisfied if the recorded inhibition at 1000 µM is greater than or equal to 80%, and Not satisfied otherwise.

Exercise: Textbook exercise: given the entry COc1ccc2c(c1)C/C(=C\c1ccc(NC(=O)CN3CCN(C)CC3)cc1)C2=O [D1] , state whether its inhibition at 1000 µM is greater than or equal to 80%.
Solution: Not satisfied

Exercise: Quick check, inhibition at 1000 µM >= 80%? CCCN(C)CC(=O)Nc1ccc(/C=C2\Cc3cc(OC)ccc3C2=O)cc1
Solution: Satisfied

Exercise: I'd appreciate it if you could say whether COCCN1CCN(CC(=O)Nc2ccc(/C=C3\Cc4cc(OC)ccc4C3=O)cc2)CC1 has inhibition at 1000 µM at least equal to 80%.
Solution: Satisfied

Exercise: Check this compound for inhibition at 1000 µM at or above 80%: COc1cc2c(cc1OC)C(=O)/C(=C/c1ccc(NC(=O)CN3CCN(CCO)CC3)cc1)C2
Solution: Not satisfied

Exercise: Threshold query (inhibition at 1000 µM >= 80%) on C#CCN1CCN(CC(=O)Nc2ccc(/C=C3\Cc4cc(OC)ccc4C3=O)cc2)CC1
Solution: Not satisfied

Exercise: Could you please find out whether CCN(CC)CCN(CC)CC(=O)Nc1ccc(/C=C2\Cc3cc(OC)ccc3C2=O)cc1 has inhibition at 1000 µM that meets 80% or exceeds it?
Solution: Satisfied

* * *

# target_or_test_system: AChE (Homo sapiens, UniProt P22303)
# Sequence (P22303 32-614): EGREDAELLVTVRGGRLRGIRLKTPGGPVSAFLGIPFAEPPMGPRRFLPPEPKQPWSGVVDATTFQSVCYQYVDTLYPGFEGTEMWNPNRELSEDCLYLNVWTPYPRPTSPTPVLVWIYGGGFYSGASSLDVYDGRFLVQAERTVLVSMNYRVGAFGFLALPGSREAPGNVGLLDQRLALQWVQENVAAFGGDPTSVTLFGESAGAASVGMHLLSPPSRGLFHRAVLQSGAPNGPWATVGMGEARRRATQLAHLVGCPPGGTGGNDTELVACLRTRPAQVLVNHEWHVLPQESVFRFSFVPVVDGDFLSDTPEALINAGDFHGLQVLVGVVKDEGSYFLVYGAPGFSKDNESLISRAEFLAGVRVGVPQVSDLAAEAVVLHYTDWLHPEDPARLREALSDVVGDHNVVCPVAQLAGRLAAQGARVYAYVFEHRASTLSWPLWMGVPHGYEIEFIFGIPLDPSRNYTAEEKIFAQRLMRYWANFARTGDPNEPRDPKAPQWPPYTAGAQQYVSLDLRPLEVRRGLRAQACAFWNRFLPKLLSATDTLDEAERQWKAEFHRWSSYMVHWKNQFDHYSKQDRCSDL
# experiment_summary: biochemical
# condition_details: 10^–6 M
I'd appreciate it if you could supply inhibition at 1 µM values for the items below.
Write the answer as a number in %, unit excluded.

Exercise: // fetch inhibition at 1 µM for COc1cc2c(cc1OC)C(=O)/C(=C/c1ccc(NC(=O)CN(C)CCN(C)C)cc1)C2 ; system: AChE (Homo sapiens, UniProt P22303)
Solution: 58.8

Exercise: Would you please give the reported inhibition at 1 µM of COc1ccc2c(c1)C(=O)/C(=C/c1ccc(NC(=O)CN(C)CCCN(C)C)cc1)C2 with AChE (Homo sapiens, UniProt P22303)?
Solution: 74

Exercise: Enter recorded inhibition at 1 µM with AChE (Homo sapiens, UniProt P22303) for COc1ccc2c(c1)C(=O)/C(=C/c1ccc(NC(=O)CN3CCN(CCN(C)C)CC3)cc1)C2 here.
Solution: 70.1

Exercise: Tell me its inhibition at 1 µM on AChE (Homo sapiens, UniProt P22303): CCCN(C)CC(=O)Nc1ccc(/C=C2\Cc3cc(OC)ccc3C2=O)cc1
Solution: 87.1

Exercise: Fetch value of inhibition at 1 µM on AChE (Homo sapiens, UniProt P22303) for CCCN(C)CC(=O)Nc1ccc(/C=C2\Cc3cc(OC)c(OC)cc3C2=O)cc1 .
Solution: 88.3

* * *

Form: system (UniProtKB P22303), quantity (IC50), values below.
Provide the reading as a plain figure in nM.

Exercise: Find the measured IC50 of COc1ccc2c(c1)C/C(=C\c1ccc(NC(=O)CN3CCN(CCCO)CC3)cc1)C2=O [D19] and report it.
Solution: 32.4

Exercise: Retrieve IC50 measured for COc1ccc2c(c1)C/C(=C\c1ccc(NC(=O)CN3CCN(CCN(C)C)CC3)cc1)C2=O [D22] and print it.
Solution: 52.7

Exercise: Provide measured IC50 value, entry: COc1cc2c(cc1OC)C(=O)/C(=C/c1ccc(NC(=O)CN3CCN(CCCN(C)C)CC3)cc1)C2 [D27]
Solution: 130

Exercise: Output IC50 of COc1ccc2c(c1)C(=O)/C(=C/c1ccc(NC(=O)CN(C)CCN(C)C)cc1)C2 [D35]
Solution: 215

Exercise: Tell me its IC50 given CCCN(C)CC(=O)Nc1ccc(/C=C2\Cc3cc(OC)c(OC)cc3C2=O)cc1 [D30] as the entry.
Solution: 25.7

Exercise: Specify reported IC50 for the molecule shown: CCCN(C)CC(=O)Nc1ccc(/C=C2\Cc3cc(OC)ccc3C2=O)cc1 [D28]
Solution: 24.8

Exercise: State, in one line, measured IC50 of COc1ccc2c(c1)C(=O)/C(=C/c1ccc(NC(=O)CN3CCN(CCCN(C)C)CC3)cc1)C2 [D26]
Solution: 176

Exercise: Give IC50 for the following molecule: COc1ccc2c(c1)C(=O)/C(=C/c1ccc(NC(=O)CN(C)CCCN(C)C)cc1)C2 [D38]
Solution: 47.3

Exercise: Answer with reported IC50 of COc1cc2c(cc1OC)C(=O)C(=Cc1ccc(NC(=O)CN3CCN(CCN(C)C)CC3)cc1)C2 [D24]
Solution: 46.9

Exercise: Identify the reported IC50 for the following entry. COc1cc2c(cc1OC)C(=O)/C(=C/c1ccc(NC(=O)CN(C)CCN(C)C)cc1)C2 [D36]
Solution: 235

Exercise: Return reported IC50. Input molecule: COc1ccc2c(c1)C(=O)/C(=C/c1ccc(NC(=O)CN3CCN(CCN(C)C)CC3)cc1)C2 [D23]
Solution: 51

Exercise: Indicate the recorded IC50 value for this molecule: COc1ccc2c(c1)C/C(=C\c1ccc(NC(=O)CN3CCN(CCCN(C)C)CC3)cc1)C2=O [D25]
Solution: 183

Exercise: Provide one value: measured IC50 of COc1ccc2c(c1)C/C(=C\c1ccc(NC(=O)CN(C)CCN(C)C)cc1)C2=O [D34]
Solution: 191

Exercise: Output IC50 of CCCN(C)CC(=O)Nc1ccc(/C=C2\Cc3ccc(OC)cc3C2=O)cc1 [D29]
Solution: 22.4

Exercise: // fetch IC50 given entry COc1ccc2c(c1)C(=O)/C(=C/c1ccc(NC(=O)CN3CCN(CCCO)CC3)cc1)C2 [D20]
Solution: 31.1

Exercise: For the molecule COc1cc2c(cc1OC)C(=O)/C(=C/c1ccc(NC(=O)CN3CCN(CCCO)CC3)cc1)C2 [D21] , give its reported IC50.
Solution: 29.2

Exercise: Assign IC50 to the following record: COc1ccc2c(c1)C/C(=C\c1ccc(NC(=O)CN(C)CCCN(C)C)cc1)C2=O [D37]
Solution: 48.2

Exercise: Fill in reported IC50 for this entry: COc1cc2c(cc1OC)C(=O)/C(=C/c1ccc(NC(=O)CN(C)CCCN(C)C)cc1)C2 [D39]
Solution: 45.8

* * *

# target_or_test_system: AChE (Homo sapiens, UniProt P22303)
# experiment_summary: biochemical
# condition_details: 10^–9 M
measure_name: inhibition at 0.001 µM (%)
Expressed in %, but write only the number.

Exercise: Determine from records and report inhibition at 0.001 µM for COc1ccc2c(c1)C/C(=C\c1ccc(NC(=O)CN3CCN(CCCN(C)C)CC3)cc1)C2=O
Solution: 23.4

Exercise: Read the entry COc1ccc2c(c1)C(=O)/C(=C/c1ccc(NC(=O)CN3CCN(CCN(C)C)CC3)cc1)C2 and write its reported inhibition at 0.001 µM.
Solution: 20.6

Exercise: State, in one line, measured inhibition at 0.001 µM of COc1ccc2c(c1)C(=O)/C(=C/c1ccc(NC(=O)CN3CCN(CCCN(C)C)CC3)cc1)C2
Solution: 24.5

Exercise: Supply measured inhibition at 0.001 µM of CCCN(C)CC(=O)Nc1ccc(/C=C2\Cc3ccc(OC)cc3C2=O)cc1 in your reply.
Solution: 20.1

Exercise: Answer with reported inhibition at 0.001 µM of COc1cc2c(cc1OC)C(=O)/C(=C/c1ccc(NC(=O)CN(C)CCCN(C)C)cc1)C2
Solution: 20.5

Exercise: Supply recorded inhibition at 0.001 µM for COc1cc2c(cc1OC)C(=O)/C(=C/c1ccc(NC(=O)CN(C)CCN(C)C)cc1)C2 here.
Solution: 20.6

Exercise: Fill in inhibition at 0.001 µM for record CCCN(C)CC(=O)Nc1ccc(/C=C2\Cc3cc(OC)ccc3C2=O)cc1
Solution: 19.4

Exercise: Recall and state the measured inhibition at 0.001 µM for COc1cc2c(cc1OC)C(=O)/C(=C/c1ccc(NC(=O)CN3CCN(CCCO)CC3)cc1)C2 .
Solution: 19.3
